# assay-explanation: Preliminary cell toxicity study in THP1 cells
# Assay type: cell-based
# run-conditions: human
pIC50: −log10 of the molar value.

>  <compound>
CC(C)C(C(=O)O)N1C(=O)c2ccncc2C1=O (stereo not shown)

>  <pIC50>
3.35

$$$$
